Provide the reported TGI of each item.
test system: DU-145 prostate; assay: NCI tumour cell line growth inhibition, 48 h

Data request: Need TGI of "Cc1c(C)c2c(c(C)c1OCC(=O)O)CC[C@@](C)(CCC[C@@H](C)CCC[C@@H](C)CCCC(C)C)O2" , thanks.
Data returned: 147 µM

Data request: Need TGI of COc1ccc(CCN2C(=O)CC34C=CC(CC3C2=O)O4)cc1OC (stereo not given) , thanks.
Data returned: > 100 µM

Data request: Need TGI of CC1(C)OC2OC(COC(=O)c3ccc(C#N)cc3)C3OC(C)(C)OC3C2O1 (stereo not given) , thanks.
Data returned: > 75 µM

Data request: Need TGI of Cc1ccc(/S(Cc2ccccc2)=N\S(=O)(=O)c2ccc(C)cc2)cc1 (stereo not given) , thanks.
Data returned: > 100 µM

Data request: Need TGI of "O=c1c2c3c(sc2nc2n1N=CN(c1ccc(F)cc1)C2)CCCC3" , thanks.
Data returned: > 100 µM
